Origin of values: the Human Domainome abundance scans (Beltran et al. 2025)

Readings of abundance fitness for the listed variants
B1: Proto-oncogene vav, residues 782 to 842; numbered along this chain, P15498 (parent)
chain: KYFGTAKARYDFCARDRSELSLKEGDIIKILNKKGQQGWWRGEIYGRVGWFPANYVEEDYS

- Variants of: B1
- PROTOCOL: abundance fitness (aPCA) (normalised: wild type 0, dead -1); higher = more abundant; growth selection in yeast, the domain comes from the species named
- TEST_CONDITIONS: Homo sapiens
Number only, no unit.

Below: 3 variants and their reported abundance fitness.
Q37W ... -0.189
Y60L ... 0.062
K23G ... -0.815

Give abundance fitness for R41F
0.081

Give abundance fitness for F3I
0.058

Give abundance fitness for L20E
-0.852

Give abundance fitness for A8H
-0.62

Give abundance fitness for V56G
-0.545
